Target: human prolyl-tRNA synthetase (ProRS domain of GluProRS) (Homo sapiens, UniProt P07814)
Construct: gene EPRS1; recombinant human ProRS
Sequence (P07814 998-1512): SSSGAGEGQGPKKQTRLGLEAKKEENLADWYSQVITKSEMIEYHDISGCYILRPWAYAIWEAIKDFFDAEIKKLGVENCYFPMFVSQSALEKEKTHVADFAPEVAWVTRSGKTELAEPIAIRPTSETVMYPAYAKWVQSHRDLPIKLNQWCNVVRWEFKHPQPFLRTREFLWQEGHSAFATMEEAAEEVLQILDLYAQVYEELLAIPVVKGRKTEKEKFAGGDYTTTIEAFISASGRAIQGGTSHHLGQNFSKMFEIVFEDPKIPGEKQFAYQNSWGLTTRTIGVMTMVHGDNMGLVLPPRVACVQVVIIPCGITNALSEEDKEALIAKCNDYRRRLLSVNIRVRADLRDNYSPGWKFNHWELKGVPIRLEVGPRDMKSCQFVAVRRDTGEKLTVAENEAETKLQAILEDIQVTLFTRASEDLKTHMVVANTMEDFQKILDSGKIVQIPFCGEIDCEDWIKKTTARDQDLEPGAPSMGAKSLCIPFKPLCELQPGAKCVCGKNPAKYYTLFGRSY
Assay: TR-FRET ligand displacement with […] ATP
Type: binding
measure-name: pKd
Numbers only, as −log10 of the molar value.

Given the molecule O=C(CC1NCCCC1O)Cn1cnc2cc(Br)c(Cl)cc2c1=O (stereo not shown) , what is its reported pKd?
9.72
